Listed here: items and their measured koff.
studySystem: T1, human CD40 extracellular domain with C-terminal His-AviTag (human, UniProt P25942 21-193)
T1 construct: not shown: C-terminal His-AviTag
T1 sequence (P25942 21-193): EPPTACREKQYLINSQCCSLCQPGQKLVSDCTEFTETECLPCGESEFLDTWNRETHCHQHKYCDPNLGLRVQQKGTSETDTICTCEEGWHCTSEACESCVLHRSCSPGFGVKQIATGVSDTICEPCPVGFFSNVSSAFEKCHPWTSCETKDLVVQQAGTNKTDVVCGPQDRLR
protocolDescription: SPR, antibody captured, CD40 ECD analyte;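 further: biacore SPR at 25 °C in PBS-T pH 7.4, CD40 ECD analyte from 300 nM in 1:3 series, 300 s association, up to 1200 s dissociation, double-referenced, Langmuir 1:1 fit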

| binder | koff |
| --- | --- |
| P1AE0818, humanized anti-CD40 antibody VH1c/VL1c, huIgG1_LALA_PG (antibody, V domains shown, huIgG1 with effector silent Fc (P329G, L234A, L235A)) VH: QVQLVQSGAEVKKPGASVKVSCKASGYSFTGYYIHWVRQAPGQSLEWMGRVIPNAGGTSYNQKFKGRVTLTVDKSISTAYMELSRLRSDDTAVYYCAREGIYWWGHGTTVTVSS VL: DVVVTQTPLSLSVTPGQPASISCRSSQSLVHSNGNTFLHWYLQKPGQSPQLLIYTVSNRFSGVPDRFSGSGSGTDFTLKISRVEAEDVGVYFCSQTTHVPWTFGGGTKVEIK | 0.00847 s⁻¹ |
| P1AE1006, humanized anti-CD40 antibody VH1c/VL1b, huIgG1_LALA_PG (antibody, V domains shown, huIgG1 with effector silent Fc (P329G, L234A, L235A)) VH: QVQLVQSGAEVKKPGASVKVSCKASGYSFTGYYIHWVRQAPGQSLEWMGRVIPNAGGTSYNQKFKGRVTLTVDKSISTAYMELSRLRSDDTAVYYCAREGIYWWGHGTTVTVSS VL: DIVVTQTPLSLSVTPGQPASISCRSSQSLVHSNGNTFLHWYLQKPGQSPQLLIYTVSNRFSGVPDRFSGSGSGTDFTLKISRVEAEDVGVYFCSQTTHVPWTFGGGTKVEIK | 0.00651 s⁻¹ |
| P1AE1003, humanized anti-CD40 antibody VH1b/VL1b, huIgG1_LALA_PG (antibody, V domains shown, huIgG1 with effector silent Fc (P329G, L234A, L235A)) VH: QVQLVQSGAEVKKPGASVKVSCKASGYSFTGYYIHWVRQAPGKSLEWMGRVIPNAGGTSYNQKFKGRVTLTVDKSISTAYMELSRLRSDDTAVYYCAREGIYWWGQGTTVTVSS VL: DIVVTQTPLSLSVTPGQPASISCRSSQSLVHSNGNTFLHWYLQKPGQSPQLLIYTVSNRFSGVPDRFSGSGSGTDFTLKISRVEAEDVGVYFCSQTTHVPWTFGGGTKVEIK | 0.00606 s⁻¹ |
